// reported composite z-score for each item listed
Test system: Inhibin beta A chain (activin A)
procedure.text: INHBA (activin A) binders on microarrays, primary screen, biochemical, small-molecule microarray, 635 nm fluorescence scan (AID 1107);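 further: mouse activin A protein probed at 4.33 µg/mL on printed slides; score merges bound-protein fluorescence near 667 nm with spot signal-to-noise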
condition.details: small-molecule microarray binding, higher = more signal
observed.property: composite z-score

>>> experimental_value("CC(C)C(O)C1C=CC2C(=O)N(C)C(=O)C2N1N(c1ccccc1)c1ccccc1 (stereo not drawn)")
1.7
>>> experimental_value("C=C(CCCC)C(=O)CC[C@@H](OC(=O)c1cccnc1)c1ccccc1OCCO")
1.16
>>> experimental_value("CC[C@H]1C2=C3C(CC[C@H]4C(OCc5ccc(F)cc5C(F)(F)F)OC[C@](C)([C@@H]34)N(C(=O)OC(C)(C)C)C2)C2COC(=O)OCC21 (stereo partly drawn)")
1.06
>>> experimental_value("C=C(CCCC)/C(=C/C[C@@H](OC(=O)c1ccncc1)c1cccc(OCCO)c1)c1cnc2ccccc2c1")
1.67
>>> experimental_value("CC(C)CNC(=O)[C@@]1(c2ccc([N+](=O)[O-])cc2)CC(=O)N(C2CCCCC2)[C@@H]1c1ccc(CO)cc1I")
0.138
>>> experimental_value("CCCc1cccc(=O)o1")
1.06
>>> experimental_value("C=C[C@@H](COC(C)=O)NS(=O)(=O)c1ccc(Br)cc1")
0.361
>>> experimental_value("COc1ccc(C(O)C2C=CC3C(=O)N(c4ccccc4)C(=O)C3N2Nc2ccccc2)cc1OCc1ccccc1 (stereo not drawn)")
0.726
>>> experimental_value("CC1CC/C=C\\[C@H]2OC34C=CCN(c5ccc6ccccc6c5)C(=O)[C@H]3N(C(CO)C(C)C)C(=O)[C@@H]4C2C(=O)O1 (stereo partly drawn)")
1.2
>>> experimental_value("O=C1O[C@@H](c2ccccc2)[C@@H](c2ccccc2)N2[C@@H](c3ccc(O)cc3)[C@]3(C(=O)Nc4ccccc43)[C@@H](C(=O)Nc3nc4ccccc4s3)[C@H]12")
0.3
>>> experimental_value("CC(CO)N1C(=O)[C@@H]2C3C(=O)OCCC/C=C\\[C@H]3OC23C=CCN(Cn2nnc4ccccc42)C(=O)[C@@H]13 (stereo partly drawn)")
0.339
>>> experimental_value("CC(C)(C)N1CC=CC23O[C@@H]4C=CCOC(=O)[C@@H]4[C@H]2C(=O)N(CCCO)[C@@H]3C1=O (stereo partly drawn)")
0.301
>>> experimental_value("C=CCNC(=O)[C@@H]1[C@H]2C(=O)O[C@H](c3ccccc3)[C@H](c3ccccc3)N2[C@H](c2ccccc2OCCO)[C@@]12C(=O)N(C(=O)OCCOC)c1ccc(C#CC3=CCCCC3)cc12")
-0.0496
>>> experimental_value("CC(C)CCC[C@@H](C)[C@H]1CC[C@@]2(C)C3=C(CC[C@]12C)[C@@]1(C)CC[C@H](OC(=O)c2ccc(Br)cc2)C(C)(C)C1CC3 (stereo partly drawn)")
0.26
>>> experimental_value("C=CCN1C(=O)[C@@]2(CCC(=O)OC(C)(C)C)N=C(c3ccc(OCCCO)cc3)O[C@H]2c2ccccc21")
1.4
>>> experimental_value("CCOC(=O)C[C@H]1[C@H](OC(=O)c2ccc(C(=O)c3ccccc3)cc2)[C@@H](NC(=O)c2ccc3ccccc3c2)c2cc(OCCCO)ccc2N1C(=O)c1ccccc1")
0.007
>>> experimental_value("COc1ccc([Si](C)(C)[C@H]2[C@H](CC(=O)N3Cc4ccccc4C[C@H]3CO)O[C@@]3(C(=O)N(Cc4cccc(N5CCCCC5=O)c4)c4ccccc43)[C@@H]2C)cc1")
0.94
>>> experimental_value("O=C(CCCCCCC(=O)Nc1ccccc1)N/N=C/c1ccccc1")
0.18
